# MEASUREMENT_TARGET: AII receptor
# TEST_SUMMARY: Angiotensin II receptor binding (displacement of 3H-AII)
# TEST_CONTEXT: read-out: Angiotensin II Receptor Binding IC50; Table 26; rat adrenal cortical microsomes, 2 nM 3H-AII, 1 hour, room temperature
READOUT_TYPE: pIC50
As a rule, pIC50 stands for the negative log10 of the concentration, concentration in M.

Solved cases (4 shown):
COMPOUND: CCCCc1nc(Cl)c(-c2nnn[nH]2)n1Cc1ccc(-c2ccccc2-c2nnn[nH]2)cc1
READOUT_TYPE: pIC50
MEASURED: 6.80
--
COMPOUND: CCCc1nc(C(F)(F)C(F)(F)C(F)(F)C(F)(F)F)c(CO)n1Cc1ccc(-c2ccccc2C(=O)O)cc1 [Example 124H]
READOUT_TYPE: pIC50
MEASURED: 6.54
--
COMPOUND: CCCc1nc(C(F)(F)C(F)(F)F)c(CO)n1Cc1ccc(-c2ccccc2-c2nn[nH]n2)cc1 [Example 124F]
READOUT_TYPE: pIC50
MEASURED: 9.00
--
COMPOUND: CCCCc1nc(C(F)(F)F)c(C(=O)OC)n1Cc1ccc(-c2ccccc2-c2nnn[nH]2)cc1 [Example 140H]
READOUT_TYPE: pIC50
MEASURED: 7.12

Consider the additional compound presented here.
Req: Which value of pIC50 has been reported for CCCCc1nc(C(F)(F)C(F)(F)F)c(CO)n1Cc1ccc(-c2ccccc2-c2nn[nH]n2)cc1 [Example 124E] in the records?
Resp: 8.15
